Taken from ChEMBL document CHEMBL4312037.

- measurement-protocol: in vitro
- run-conditions: human, MT4 cells; MT4 cells infected with HIV1 3B K103N mutant
- Description: Selectivity index, ratio of CC50 for cytotoxicity against human MT4 cells to EC50 for antiviral activity against HIV1 3B harbouring NNRTI K103N mutant infected in human MT4 cells
experimental-endpoint: selectivity ratio

[[record]]
compound = "COc1cc2nc([S+]([O-])CC(=O)Nc3ccc(F)cc3)nc(Nc3c(C)cc(/C=C/C#N)cc3C)c2cc1OC (stereo unspecified)"
endpoint_value = 833

[[record]]
compound = "COc1cc2nc(SCC(=O)Nc3ccc(C(F)(F)F)cc3)nc(Nc3c(Cl)cc(/C=C/C#N)cc3Cl)c2cc1OC"
endpoint_value = "> 50"

[[record]]
compound = "COc1cc2nc([S+]([O-])CC(=O)Nc3cccc(C(F)(F)F)c3)nc(Nc3c(Cl)cc(/C=C/C#N)cc3Cl)c2cc1OC (stereo unspecified)"
endpoint_value = 35

[[record]]
compound = "COc1cc2nc([S+]([O-])CC(=O)Nc3cccc(Cl)c3)nc(Nc3c(Cl)cc(/C=C/C#N)cc3Cl)c2cc1OC (stereo unspecified)"
endpoint_value = 1000

[[record]]
compound = "COc1cc2nc([S+]([O-])CC(=O)Nc3cccc(C#N)c3)nc(Nc3c(Cl)cc(/C=C/C#N)cc3Cl)c2cc1OC (stereo unspecified)"
endpoint_value = "≥ 1840"

[[record]]
compound = "COc1cc2nc([S+]([O-])CC(=O)Nc3ccc(Cl)cc3)nc(Nc3c(Cl)cc(/C=C/C#N)cc3Cl)c2cc1OC (stereo unspecified)"
endpoint_value = 550

[[record]]
compound = "COc1cc2nc(Nc3ccc(C#N)cc3)nc(Nc3c(Cl)cc(/C=C/C#N)cc3Cl)c2cc1OC"
endpoint_value = 1580

[[record]]
compound = "COc1cc2nc(Nc3ccc(C#N)cc3)nc(Nc3c(C)cc(/C=C/C#N)cc3F)c2cc1OC"
endpoint_value = "> 4720"

[[record]]
compound = "COc1cc2nc([S+]([O-])CC(=O)Nc3ccc([N+](=O)[O-])cc3)nc(Nc3c(C)cc(/C=C/C#N)cc3C)c2cc1OC (stereo unspecified)"
endpoint_value = 12100

[[record]]
compound = "COc1cc2nc(SCC(=O)Nc3ccc(C(F)(F)F)cc3)nc(Nc3c(C)cc(/C=C/C#N)cc3C)c2cc1OC"
endpoint_value = "> 87"

[[record]]
compound = "COc1cc2nc(SCC(=O)Nc3ccc([N+](=O)[O-])cc3)nc(Nc3c(C)cc(/C=C/C#N)cc3C)c2cc1OC"
endpoint_value = "> 612"

[[record]]
compound = "COc1cc2nc(SCC(=O)Nc3ccc(C#N)cc3)nc(Nc3c(C)cc(/C=C/C#N)cc3C)c2cc1OC"
endpoint_value = "> 1130"

[[record]]
compound = "COc1cc2nc([S+]([O-])CC(=O)Nc3ccc([N+](=O)[O-])cc3)nc(Nc3c(Cl)cc(/C=C/C#N)cc3Cl)c2cc1OC (stereo unspecified)"
endpoint_value = 2990

[[record]]
compound = "COc1cc2nc(SCC(=O)Nc3ccc(F)cc3)nc(Nc3c(C)cc(/C=C/C#N)cc3C)c2cc1OC"
endpoint_value = "≥ 159"

[[record]]
compound = "COc1cc2nc([S+]([O-])CC(=O)Nc3cccc(F)c3)nc(Nc3c(Cl)cc(/C=C/C#N)cc3Cl)c2cc1OC (stereo unspecified)"
endpoint_value = 137

[[record]]
compound = "COc1cc2nc([S+]([O-])CC(=O)Nc3cc([N+](=O)[O-])ccc3F)nc(Nc3c(Cl)cc(/C=C/C#N)cc3Cl)c2cc1OC (stereo unspecified)"
endpoint_value = "> 32"


====

- tgt: Human immunodeficiency virus type 1 reverse transcriptase (Human immunodeficiency virus 1, UniProt Q72547)
pIC50: −log10 of the molar value.
Reported pIC50 is given for each of the following molecules.
experimental-endpoint: pIC50

[[record]]
molecule = "COc1cc2nc(Nc3ccc(C#N)cc3)nc(Nc3c(Cl)cc(/C=C/C#N)cc3Cl)c2cc1OC"
endpoint_value = 7.34

[[record]]
molecule = "COc1cc2nc([S+]([O-])CC(=O)Nc3ccc([N+](=O)[O-])cc3)nc(Nc3c(C)cc(/C=C/C#N)cc3C)c2cc1OC (stereo unspecified)"
endpoint_value = 7.96

[[record]]
molecule = "COc1cc2nc(SCC(=O)Nc3ccc([N+](=O)[O-])cc3)nc(Nc3c(C)cc(/C=C/C#N)cc3C)c2cc1OC"
endpoint_value = 5.40

[[record]]
molecule = "COc1cc2nc(Nc3ccc(C#N)cc3)nc(Nc3c(C)cc(/C=C/C#N)cc3C)c2cc1OC"
endpoint_value = 6.26

[[record]]
molecule = "COc1cc2nc([S+]([O-])CC(=O)Nc3ccc(C#N)cc3)nc(Nc3c(C)cc(/C=C/C#N)cc3C)c2cc1OC (stereo unspecified)"
endpoint_value = 8.24

[[record]]
molecule = "COc1cc2nc(SCC(=O)Nc3ccc(C#N)cc3)nc(Nc3c(C)cc(/C=C/C#N)cc3C)c2cc1OC"
endpoint_value = 5.44


====

- System: Human immunodeficiency virus 1
- measurement-protocol: Antiviral activity against HIV1 3B harbouring NNRTI K103N mutant infected in human MT4 cells assessed as virus-induced cytopathic effect incubated for 5 days by MTT assay
- Format: functional, organism-based
- run-conditions: Human immunodeficiency virus 1, 3B, MT4, 120 h
Reported EC50 maps to class as: interval 1: < 30 nM; interval 2: ≥ 30 nM and < 700 nM; interval 3: ≥ 700 nM

[[record]]
compound = "COc1cc2nc([S+]([O-])CC(=O)Nc3ccc(C#N)cc3)nc(Nc3c(C)cc(/C=C/C#N)cc3C)c2cc1OC (stereo unspecified)"
assigned_class = "interval 1"

[[record]]
compound = "COc1cc2nc(SCC(=O)Nc3ccc(C(F)(F)F)cc3)nc(Nc3c(C)cc(/C=C/C#N)cc3C)c2cc1OC"
assigned_class = "interval 3"

[[record]]
compound = "COc1cc2nc(Nc3ccc(C#N)cc3)nc(Nc3c(F)cc(/C=C/C#N)cc3F)c2cc1OC"
assigned_class = "interval 1"

[[record]]
compound = "COc1cc2nc([S+]([O-])CC(=O)Nc3ccccc3C(F)(F)F)nc(Nc3c(Cl)cc(/C=C/C#N)cc3Cl)c2cc1OC (stereo unspecified)"
assigned_class = "interval 3"

[[record]]
compound = "COc1cc2nc([S+]([O-])CC(=O)Nc3cccc(C#N)c3)nc(Nc3c(Cl)cc(/C=C/C#N)cc3Cl)c2cc1OC (stereo unspecified)"
assigned_class = "interval 2"

[[record]]
compound = "COc1cc2nc([S+]([O-])CC(=O)Nc3ccc(C)cc3)nc(Nc3c(Cl)cc(/C=C/C#N)cc3Cl)c2cc1OC (stereo unspecified)"
assigned_class = "interval 2"

[[record]]
compound = "COc1cc2nc([S+]([O-])CC(=O)Nc3ccc(C#N)cc3)nc(Nc3c(Cl)cc(/C=C/C#N)cc3Cl)c2cc1OC (stereo unspecified)"
assigned_class = "interval 2"

[[record]]
compound = "COc1cc2nc(SCC(=O)Nc3ccc(C#N)cc3)nc(Nc3c(C)cc(/C=C/C#N)cc3C)c2cc1OC"
assigned_class = "interval 2"

[[record]]
compound = "COc1ccc(NC(=O)CSc2nc(Nc3c(C)cc(/C=C/C#N)cc3C)c3cc(OC)c(OC)cc3n2)cc1"
assigned_class = "interval 3"

[[record]]
compound = "COc1cc2nc([S+]([O-])CC(=O)Nc3ccc([N+](=O)[O-])cc3)nc(Nc3c(Cl)cc(/C=C/C#N)cc3Cl)c2cc1OC (stereo unspecified)"
assigned_class = "interval 2"

[[record]]
compound = "COc1cc2nc(SCC(=O)Nc3ccc(F)cc3)nc(Nc3c(C)cc(/C=C/C#N)cc3C)c2cc1OC"
assigned_class = "interval 3"

[[record]]
compound = "COc1cc2nc(SCC(=O)Nc3ccc(Cl)cc3)nc(Nc3c(Cl)cc(/C=C/C#N)cc3Cl)c2cc1OC"
assigned_class = "interval 2"

[[record]]
compound = "COc1cc2nc([S+]([O-])CC(=O)Nc3cc([N+](=O)[O-])ccc3F)nc(Nc3c(Cl)cc(/C=C/C#N)cc3Cl)c2cc1OC (stereo unspecified)"
assigned_class = "interval 3"

[[record]]
compound = "COc1cc2nc([S+]([O-])CC(=O)Nc3ccc(F)cc3)nc(Nc3c(C)cc(/C=C/C#N)cc3C)c2cc1OC (stereo unspecified)"
assigned_class = "interval 2"

[[record]]
compound = "COc1cc2nc([S+]([O-])CC(=O)Nc3ccc(Cl)cc3)nc(Nc3c(Cl)cc(/C=C/C#N)cc3Cl)c2cc1OC (stereo unspecified)"
assigned_class = "interval 1"

[[record]]
compound = "Cc1ccnc2c1NC(=O)c1cccnc1N2C1CC1"
assigned_class = "interval 3"


====

- measurement-protocol: in vitro
- run-conditions: human, MT4 cells; MT4 cells infected with HIV1 3B
- Description: Selectivity index, ratio of CC50 for cytotoxicity against human MT4 cells to EC50 for antiviral activity against HIV1 3B infected in human MT4 cells
experimental-endpoint: selectivity ratio

[[record]]
compound = "COc1cc2nc(SCC(=O)Nc3cccc(S(N)(=O)=O)c3)nc(Nc3c(Cl)cc(/C=C/C#N)cc3Cl)c2cc1OC"
experimental_endpoint = "selectivity ratio"
endpoint_value = "> 1"

[[record]]
compound = "COc1cc2nc([S+]([O-])CC(=O)Nc3c(C)cc(C)cc3C)nc(Nc3c(Cl)cc(/C=C/C#N)cc3Cl)c2cc1OC (stereo not given)"
experimental_endpoint = "selectivity ratio"
endpoint_value = 1

[[record]]
compound = "COc1cc2nc([S+]([O-])CC(=O)Nc3cc([N+](=O)[O-])ccc3F)nc(Nc3c(Cl)cc(/C=C/C#N)cc3Cl)c2cc1OC (stereo not given)"
experimental_endpoint = "selectivity ratio"
endpoint_value = "> 24"

[[record]]
compound = "COc1cc2nc([S+]([O-])CC(=O)Nc3cccc(C(F)(F)F)c3)nc(Nc3c(Cl)cc(/C=C/C#N)cc3Cl)c2cc1OC (stereo not given)"
experimental_endpoint = "selectivity ratio"
endpoint_value = 17

[[record]]
compound = "COc1cc2nc([S+]([O-])CC(=O)Nc3ccc(Cl)cc3)nc(Nc3c(Cl)cc(/C=C/C#N)cc3Cl)c2cc1OC (stereo not given)"
experimental_endpoint = "selectivity ratio"
endpoint_value = 313

[[record]]
compound = "COc1cc2nc([S+]([O-])CC(=O)Nc3ccc(C(F)(F)F)cc3)nc(Nc3c(Cl)cc(/C=C/C#N)cc3Cl)c2cc1OC (stereo not given)"
experimental_endpoint = "selectivity ratio"
endpoint_value = 97

[[record]]
compound = "COc1cccc(NC(=O)C[S+]([O-])c2nc(Nc3c(Cl)cc(/C=C/C#N)cc3Cl)c3cc(OC)c(OC)cc3n2)c1 (stereo not given)"
experimental_endpoint = "selectivity ratio"
endpoint_value = "≥ 70"

[[record]]
compound = "COc1cc2nc([S+]([O-])CC(=O)Nc3ccc(C(F)(F)F)cc3)nc(Nc3c(C)cc(/C=C/C#N)cc3C)c2cc1OC (stereo not given)"
experimental_endpoint = "selectivity ratio"
endpoint_value = 116

[[record]]
compound = "COc1cc2nc(SCC(=O)Nc3ccc(C(F)(F)F)cc3)nc(Nc3c(C)cc(/C=C/C#N)cc3C)c2cc1OC"
experimental_endpoint = "selectivity ratio"
endpoint_value = "> 40"

[[record]]
compound = "COc1cc2nc([S+]([O-])CC(=O)Nc3cccc([N+](=O)[O-])c3)nc(Nc3c(Cl)cc(/C=C/C#N)cc3Cl)c2cc1OC (stereo not given)"
experimental_endpoint = "selectivity ratio"
endpoint_value = "≥ 197"

[[record]]
compound = "COc1cc2nc([S+]([O-])CC(=O)Nc3cccc(Cl)c3)nc(Nc3c(Cl)cc(/C=C/C#N)cc3Cl)c2cc1OC (stereo not given)"
experimental_endpoint = "selectivity ratio"
endpoint_value = 220

[[record]]
compound = "COc1cc2nc([S+]([O-])CC(=O)Nc3ccc(S(N)(=O)=O)cc3)nc(Nc3c(Cl)cc(/C=C/C#N)cc3Cl)c2cc1OC (stereo not given)"
experimental_endpoint = "selectivity ratio"
endpoint_value = "> 10"

[[record]]
compound = "COc1cc2nc(SCC(=O)Nc3ccc(C)cc3)nc(Nc3c(Cl)cc(/C=C/C#N)cc3Cl)c2cc1OC"
experimental_endpoint = "selectivity ratio"
endpoint_value = "< 1"

[[record]]
compound = "COc1cc2nc(SCC(=O)Nc3ccc(C(F)(F)F)cc3)nc(Nc3c(Cl)cc(/C=C/C#N)cc3Cl)c2cc1OC"
experimental_endpoint = "selectivity ratio"
endpoint_value = "> 10"

[[record]]
compound = "COc1cc2nc(SCC(=O)Nc3ccc(F)cc3)nc(Nc3c(C)cc(/C=C/C#N)cc3C)c2cc1OC"
experimental_endpoint = "selectivity ratio"
endpoint_value = "≥ 66"

